The reported numbers originate from ChEMBL document CHEMBL1795208.

Test: Antiproliferative activity against human androgen-independent PC3MM2 cells after 72 hrs by MTS/PMS assay
Assay type: functional, cell-based
Conditions: PC3MM2, 72 h
measurement kind: pIC50
Numbers only, as −log10 of the molar value.

Below, each entry is followed by its recorded pIC50 result.
INSERT INTO results (compound, test_value) VALUES
  ('COc1cccc(-c2cc(C(=O)Nc3cc4cc(OC)c(OC5CCN(C)CC5)c(C)c4oc3=O)ccc2OC)c1', 5.55),
  ('COc1c(OCCCN(C)C)ccc2cc(NC(=O)c3cc4ccccc4[nH]3)c(=O)oc12', 5.05),
  ('COc1cccc(-c2cc(C(=O)Nc3cc4ccc(OC(C)=O)c(OC)c4oc3=O)ccc2OC)c1', 4.71);

Hey, quick one: what's pIC50 for each of these?
1. COc1cccc(-c2cc(C(=O)Nc3cc4cc(OC)c(OC5CCNCC5)c(C)c4oc3=O)ccc2OC)c1
2. COc1cccc(-c2cc(C(=O)Nc3cc4ccc(OC5C=CCN(C)C5)c(OC)c4oc3=O)ccc2OC)c1 (stereo not drawn)
3. COc1cccc(-c2cc(C(=O)Nc3cc4ccc(OC5CCCN(C)C5)c(C)c4oc3=O)ccc2OC)c1 (stereo not drawn)
4. Cc1c(OCCCN(C)C)ccc2cc(NC(=O)c3cc4ccccc4[nH]3)c(=O)oc12
5. COc1cccc(-c2cc(C(=O)Nc3cc4cc(OC)c(OC5C=CCN(C)C5)c(C)c4oc3=O)ccc2OC)c1 (stereo not drawn)

Result:
[5.40, 6.01, 5.37, 4.86, 5.41]

====

System: SK-BR-3
Experiment: Antiproliferative activity against human SKBR3 cells expressing HER2 after 72 hrs by MTS/PMS assay
Format: functional, cell-based
Conditions: SK-BR-3, 72 h
Task for the reader: assign each of the following compounds its reported IC50.

Hey, quick one: what's IC50 for each of these?
1. COc1cccc(-c2cc(C(=O)Nc3cc4ccc(OC(=O)N(C)C)c(OC)c4oc3=O)ccc2OC)c1
2. COc1cccc(-c2cc(C(=O)Nc3cc4ccc(O[C@H]5OCCC[C@H]5O)c(C)c4oc3=O)ccc2OC)c1
3. COc1cccc(-c2cc(C(=O)Nc3cc4ccc(OCC(O)CO)c(C)c4oc3=O)ccc2OC)c1 (stereo not drawn)

Result:
["> 100 µM", "> 100 µM", "> 50 µM"]

====

Assay: Antiproliferative activity against human androgen-independent PC3MM2 cells after 72 hrs by MTS/PMS assay
Type: functional, cell-based
Conditions: PC3MM2, 72 h
measurement kind: IC50 (µM)
Numbers only, in µM.

Below, each entry is followed by its recorded IC50 result.
INSERT INTO results (compound, unit_info, test_value) VALUES
  ('COc1cccc(-c2cc(C(=O)Nc3cc4ccc(OC5CC(C)C[C@@H](O)[C@H]5O)c(C)c4oc3=O)ccc2OC)c1 (stereo partly specified)', 'µM', 4.09),
  ('COc1cccc(-c2cc(C(=O)Nc3cc4ccc(O[C@@H]5O[C@H](CO)C[C@@H](O)[C@H]5O)c(OC)c4oc3=O)ccc2OC)c1', 'µM', 17.9),
  ('COc1cccc(-c2cc(C(=O)Nc3cc4ccc(OC5CCN(C)CC5)c(C)c4oc3=O)ccc2OC)c1', 'µM', 3.13),
  ('CC(=O)Oc1ccc(C(=O)Nc2cc3ccc(OC4CCN(C)CC4)c(C)c3oc2=O)cc1CC=C(C)C', 'µM', 2.12);

Lab note: next compound to report on.
Task: Tell me measured IC50 for COc1cccc(-c2cc(C(=O)Nc3cc4cc(OC)c(OCCN(C)C)c(C)c4oc3=O)ccc2OC)c1 please.
Result: 4.87

====

Test system: SK-BR-3
Experiment: Antiproliferative activity against human SKBR3 cells expressing HER2 after 72 hrs by MTS/PMS assay
Assay type: functional, cell-based
Details: SK-BR-3, 72 h
measurement kind: IC50

INSERT INTO assay_data (molecule, test_value) VALUES
  ('COc1cccc(-c2cc(C(=O)Nc3cc4ccc(O[C@@H]5OCC[C@H]5O)c(C)c4oc3=O)ccc2OC)c1', '> 100 µM'),
  ('COc1cccc(-c2cc(C(=O)Nc3cc4cc(OC)c(OC5CC(C)C[C@@H](O)[C@H]5O)c(C)c4oc3=O)ccc2OC)c1 (stereo partly drawn)', '> 100 µM');

Task: Under SK-BR-3: report IC50 of COc1cccc(-c2cc(C(=O)Nc3cc4ccc(OS(C)(=O)=O)c(OC)c4oc3=O)ccc2OC)c1 .
Result: > 100 µM

====

System: SK-BR-3
Experiment: Antiproliferative activity against human SKBR3 cells expressing HER2 after 72 hrs by MTS/PMS assay
Format: functional, cell-based
Details: SK-BR-3, 72 h
Task for the reader: assign each of the following molecules its reported pIC50.
Give bare numbers, as −log10 of the molar value.

Hey, quick one: what's pIC50 for each of these?
1. CNCCOc1ccc2cc(NC(=O)c3ccc(OC)c(-c4cccc(OC)c4)c3)c(=O)oc2c1OC
2. COc1cccc(-c2cc(C(=O)Nc3cc4ccc(OC5CCCN(C)C5)c(C)c4oc3=O)ccc2OC)c1 (centres undefined)
3. COc1cccc(-c2cc(C(=O)Nc3cc4ccc(OC(=O)N(C)C)c(C)c4oc3=O)ccc2OC)c1
4. COc1cc2cc(NC(=O)c3cc4ccccc4[nH]3)c(=O)oc2c(C)c1OC1CCN(C)CC1

Result:
1. 5.44
2. 5.69
3. 4.40
4. 6.96

Hey, quick one: what's pIC50 for each of these?
1. COc1cccc(-c2cc(C(=O)Nc3cc4ccc(O[C@H]5C[C@H](O)CO5)c(C)c4oc3=O)ccc2OC)c1
2. COc1cccc(-c2cc(C(=O)Nc3cc4cc(OC)c(OC5C=CCNC5)c(C)c4oc3=O)ccc2OC)c1 (centres undefined)

Result:
1. 4.45
2. 5.92

====

Task for the reader: assign each of the following molecules its reported IC50.
Test system: B16-F10
Assay: Antiproliferative activity against mouse B16F10 cells after 72 hrs by MTS/PMS assay
Format: functional, cell-based
Conditions: B16-F10, 72 h
One number for each entry, in µM.

INSERT INTO assay_data (molecule, test_value) VALUES
  ('COc1cccc(-c2cc(C(=O)Nc3cc4cc(OC)c(OC5C=CCN(C)C5)c(C)c4oc3=O)ccc2OC)c1 (centres undefined)', 6.14),
  ('COc1cccc(-c2cc(C(=O)Nc3cc4ccc(O[C@@H]5OC[C@@H](O)[C@H]5O)c(C)c4oc3=O)ccc2OC)c1', 4.55),
  ('COc1cccc(-c2cc(C(=O)Nc3cc4cc(OC)c(OC5CCCN(C(C)=O)C5)c(C)c4oc3=O)ccc2OC)c1 (centres undefined)', 23.9);

Lab note: next molecule to report on.
Task: Tell me measured IC50 for COc1cccc(-c2cc(C(=O)Nc3cc4ccc(O[C@@H]5O[C@H](CO)C[C@@H](O)[C@H]5O)c(C)c4oc3=O)ccc2OC)c1 please.
Result: 9.6

====

Test system: SK-BR-3
Assay: Antiproliferative activity against human SKBR3 cells expressing HER2 after 72 hrs by MTS/PMS assay
Type: functional, cell-based
Conditions: SK-BR-3, 72 h
measurement kind: pIC50
Numbers only, as −log10 of the molar value.

INSERT INTO results (compound, test_value) VALUES
  ('COc1cccc(-c2cc(C(=O)Nc3cc4ccc(OC5CNC[C@@H](O)[C@H]5O)c(C)c4oc3=O)ccc2OC)c1 (some centres undefined)', 5.54),
  ('Cc1c(OCCCN(C)C)ccc2cc(NC(=O)c3cc4ccccc4[nH]3)c(=O)oc12', 5.95);

Hey, quick one: what's pIC50 for each of these?
1. CO[C@@H]1[C@@H](O)[C@@H](O)[C@H](Oc2ccc3cc(NC(=O)CCCCC(=O)Nc4cc5ccc(O[C@H]6OC(C)(C)[C@@H](OC)[C@H](O)[C@@H]6O)cc5oc4=O)c(=O)oc3c2C)OC1(C)C
2. COc1cccc(-c2cc(C(=O)Nc3cc4ccc(O[C@@H]5OC[C@@H](O)[C@H]5O)c(C)c4oc3=O)ccc2OC)c1

Result:
5.70
4.90

====

Test: Antiproliferative activity against human JMAR cells after 72 hrs by MTS/PMS assay
Format: functional, cell-based
Task for the reader: assign each of the following compounds its reported IC50.
One number for each entry, in µM.

INSERT INTO results (compound, unit_info, test_value) VALUES
  ('COc1cccc(-c2cc(C(=O)Nc3cc4cc(OC)c(OC5CCCN(C)C5)c(C)c4oc3=O)ccc2OC)c1 (centres undefined)', 'µM', 19.1);

Hey, quick one: what's IC50 for each of these?
1. COc1cccc(-c2cc(C(=O)Nc3cc4ccc(OC5CC(C)C[C@@H](O)[C@H]5O)c(C)c4oc3=O)ccc2OC)c1 (some centres undefined)
2. COc1cccc(-c2cc(C(=O)Nc3cc4ccc(O[C@@H]5OCC[C@H]5O)c(C)c4oc3=O)ccc2OC)c1
3. COc1cccc(-c2cc(C(=O)Nc3cc4ccc(O[C@H]5C[C@H](O)CO5)c(C)c4oc3=O)ccc2OC)c1
4. COc1cccc(-c2cc(C(=O)Nc3cc4ccc(O[C@@H]5OC[C@@H](O)[C@H]5O)c(C)c4oc3=O)ccc2OC)c1
5. COc1cccc(-c2cc(C(=O)Nc3cc4cc(OC)c(OC5C=CCN(C)C5)c(C)c4oc3=O)ccc2OC)c1 (centres undefined)
6. COc1cccc(-c2cc(C(=O)Nc3cc4ccc(OC5C=CCCC5)c(C)c4oc3=O)ccc2OC)c1 (centres undefined)
7. COc1cccc(-c2cc(C(=O)Nc3cc4cc(OC)c(OC5CCCNC5)c(C)c4oc3=O)ccc2OC)c1 (centres undefined)

Result:
1: 2.73; 2: 14.9; 3: 24.1; 4: 12.6; 5: 18.4; 6: 7.5; 7: 5.7

Task: Tell me measured IC50 for COc1cccc(-c2cc(C(=O)Nc3cc4cc(OC)c(OC5CNC[C@@H](O)[C@H]5O)c(C)c4oc3=O)ccc2OC)c1 (some centres undefined) please.
Result: 11.5
